- Study target: human TLR9 (Homo sapiens)
- Construct: host or cells: HEK-Blue cells (HEK293-derived reporter line)
- Sequence (Q9NR96 26-1032): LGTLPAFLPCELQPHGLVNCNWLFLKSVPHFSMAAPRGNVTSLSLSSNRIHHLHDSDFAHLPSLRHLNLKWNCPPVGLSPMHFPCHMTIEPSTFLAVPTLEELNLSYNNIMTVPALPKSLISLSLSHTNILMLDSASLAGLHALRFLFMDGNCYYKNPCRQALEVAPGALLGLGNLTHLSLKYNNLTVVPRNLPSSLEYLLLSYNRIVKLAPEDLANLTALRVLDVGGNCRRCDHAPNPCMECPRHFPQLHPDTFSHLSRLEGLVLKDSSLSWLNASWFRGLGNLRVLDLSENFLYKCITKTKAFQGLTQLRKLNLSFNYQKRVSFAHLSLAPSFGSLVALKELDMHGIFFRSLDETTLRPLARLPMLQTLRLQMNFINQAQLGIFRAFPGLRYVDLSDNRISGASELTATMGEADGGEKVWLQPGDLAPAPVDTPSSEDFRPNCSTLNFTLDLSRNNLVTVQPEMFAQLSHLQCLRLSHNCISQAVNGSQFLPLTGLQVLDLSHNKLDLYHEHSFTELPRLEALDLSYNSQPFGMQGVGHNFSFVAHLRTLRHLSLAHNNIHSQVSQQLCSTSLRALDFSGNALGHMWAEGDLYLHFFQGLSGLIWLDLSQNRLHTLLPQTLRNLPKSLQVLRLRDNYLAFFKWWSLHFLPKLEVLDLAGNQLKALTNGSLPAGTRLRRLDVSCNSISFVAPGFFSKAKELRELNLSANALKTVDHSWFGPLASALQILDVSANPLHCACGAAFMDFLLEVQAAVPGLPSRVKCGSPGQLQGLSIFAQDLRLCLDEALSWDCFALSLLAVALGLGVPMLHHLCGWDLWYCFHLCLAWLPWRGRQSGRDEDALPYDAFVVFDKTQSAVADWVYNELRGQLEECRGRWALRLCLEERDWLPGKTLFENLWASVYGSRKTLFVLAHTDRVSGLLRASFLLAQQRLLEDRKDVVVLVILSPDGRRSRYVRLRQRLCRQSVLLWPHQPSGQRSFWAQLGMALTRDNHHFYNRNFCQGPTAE
- Assay protocol: TLR9 inhibition reporter assay (HEK-Blue cells, secreted embryonic alkaline phosphatase reporter)
- Type: cell-based
Measured IC50 by item
Experimental endpoint: IC50

Compound	Study target	Experimental endpoint	Reported value
CC(C)CN1CCC(N2CCC(c3cc(F)c4c(c3)nc(-c3ccc(S(C)(=O)=O)cc3)n4C)CC2)CC1	human TLR9 (Homo sapiens)	IC50	0.097 µM
Cn1c(-c2ccc(S(C)(=O)=O)cc2)nc2cc(C3CCN(C4CCN(C5CC5)CC4)CC3)c(F)cc21	human TLR9 (Homo sapiens)	IC50	1.7 µM
CC(C)CN1C2CCC1CC(N1CCC(c3ccc4nc(-c5ccc(S(C)(=O)=O)cc5)n(C)c4c3F)CC1)C2 (single isomer, unassigned) [Example 267]	human TLR9 (Homo sapiens)	IC50	0.35 µM
COc1ccc(-c2nc3c(C)cc(C4CCN(C5CC6CCC(C5)N6C5CCOCC5)CC4)cc3n2C)cc1OC (single isomer, unassigned) [Example 167]	human TLR9 (Homo sapiens)	IC50	0.79 µM
Cc1cc(C2CCN(C3CC4CCC(C3)N4CC3CC3)CC2)cc2c1nc(-c1ccc(S(C)(=O)=O)cc1)n2C (single isomer, unassigned) [Example 155]	human TLR9 (Homo sapiens)	IC50	0.16 µM
Cn1c(-c2ccc(S(C)(=O)=O)cc2)nc2cc(C3CCN(C4CC5CCC(C4)N5C4CCOCC4)CC3)cc(F)c21 (stereo not shown) [Example 211]	human TLR9 (Homo sapiens)	IC50	0.27 µM
Cn1c(-c2ccc(S(C)(=O)=O)cc2)nc2ccc(C3CCN(C4CC5CCC(C4)N5C4CCOCC4)CC3)c(F)c21 (stereo not shown) [Example 274]	human TLR9 (Homo sapiens)	IC50	0.051 µM
COCCN1CCC(N2CCC(c3cc(F)c4c(c3)nc(-c3ccc(S(C)(=O)=O)cc3)n4C)CC2)CC1	human TLR9 (Homo sapiens)	IC50	0.94 µM
Cn1c(-c2ccc(S(C)(=O)=O)cc2)nc2cc(C3CCN(C4CC5CCC(C4)N5C4COC4)CC3)c(F)cc21 (single isomer, unassigned) [Example 254]	human TLR9 (Homo sapiens)	IC50	5.3 µM
Cc1cc(C2CCN(C3CC4CCC(C3)N4C3COC3)CC2)cc2c1nc(-c1ccc(S(C)(=O)=O)cc1)n2C (single isomer, unassigned) [Example 159]	human TLR9 (Homo sapiens)	IC50	0.93 µM
COc1ccc(-c2nc3cc(F)c(C4CCN(C5CCN(C6CC6)CC5)CC4)cc3[nH]2)cc1OC	human TLR9 (Homo sapiens)	IC50	0.059 µM
Cn1c(-c2ccc(S(C)(=O)=O)cc2)nc2cc(C3CCN(C4CCN(C5CCC5)CC4)CC3)cc(F)c21	human TLR9 (Homo sapiens)	IC50	0.11 µM
COCCN1C2CCC1CC(N1CCC(c3cc4nc(-c5ccc(S(C)(=O)=O)cc5)n(C)c4cc3F)CC1)C2 (stereo not shown) [Example 257]	human TLR9 (Homo sapiens)	IC50	0.049 µM

Entry source: patent US12492188B2
